Below is a list of entries, each paired with its recorded Emax value.
- target_desc: Mu-type opioid receptor (Homo sapiens, UniProt P35372)
- Sequence (P35372 whole entry): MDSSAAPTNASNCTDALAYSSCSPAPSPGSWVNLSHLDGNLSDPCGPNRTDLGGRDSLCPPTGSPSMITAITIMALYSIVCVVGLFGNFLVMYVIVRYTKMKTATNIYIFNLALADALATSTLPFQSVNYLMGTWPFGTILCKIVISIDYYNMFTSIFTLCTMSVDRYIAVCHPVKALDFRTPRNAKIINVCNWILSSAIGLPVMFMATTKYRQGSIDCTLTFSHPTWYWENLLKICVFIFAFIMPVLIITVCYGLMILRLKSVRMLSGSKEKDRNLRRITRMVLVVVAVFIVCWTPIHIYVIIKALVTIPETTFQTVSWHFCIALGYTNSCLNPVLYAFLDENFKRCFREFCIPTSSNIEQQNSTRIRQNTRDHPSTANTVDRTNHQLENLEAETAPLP
- assay_details: Agonist activity at human MOR expressed in CHO-K1 cells co-expressing G-alpha15 by calcium mobilization assay relative to control
- Assay type: functional, cell-based
- particulars: filed as agonist
Please respond with the number in % and leave the unit unwritten.

# molecular_string, unit_info, Emax
rows = [
    ("NC(=O)CNC(=O)[C@H]1CC(=O)NCCCC[C@@H](NC(=O)[C@@H](N)Cc2ccc(O)cc2)C(=O)NCC(=O)N[C@@H](Cc2ccccc2)C(=O)N1", "%", 91.1),
]

**Query** I am curious: what Emax value has been reported for C[C@H]1NC(=O)[C@H](NC(=O)[C@@H](N)Cc2ccc(O)cc2)CCCCNC(=O)C[C@H](C(=O)N2CCC[C@H]2C(N)=O)NC(=O)[C@H](Cc2ccccc2)NC1=O ?
**Result** 115

**Query** I am curious: what Emax value has been reported for Cc1ccc(C[C@@H]2NC(=O)CNC(=O)[C@H](NC(=O)[C@@H](N)Cc3ccc(O)cc3)CCCCNC(=O)C[C@H](C(=O)N3CCC[C@H]3C(N)=O)NC2=O)cc1 ?
**Result** 109
